Catalogue of inhibition at 100 ppm values
# Test system: Aspergillus niger
# test.summary: Fungicidal activity against Aspergillus niger assessed as inhibition at 100 ppm measured after 96 hr by agar growth technique
# Assay type: functional
Express the result in % but write the number alone.

See these solved cases before continuing.
compound | result.number
COc1ccc(NC2=NN(C(=O)COc3cccc(C)c3)C(c3ccccc3)S2)cc1 (stereo not drawn) | 67
Cc1ccc(NC2=NN(C(=O)COc3cccc(C)c3)C(C)(C)S2)cc1 | 68
CC1(C)SC(Nc2ccccc2)=NN1C(=O)COc1ccc(Cl)cc1 | 69
Cc1ccc(NC2=NN(C(=O)COc3cccc(C)c3)C(c3ccccc3)S2)cc1 (stereo not drawn) | 62

What value of inhibition at 100 ppm has been reported for the following compound? Cc1cccc(OCC(=O)N2N=C(Nc3ccc(Cl)cc3)SC2(C)C)c1
54

Consider next the compound O=C(COc1ccccc1Cl)N1N=C(Nc2ccc(Cl)cc2)SC1c1ccccc1 (stereo not drawn) in the same way.
83

Consider next the compound CC1(C)SC(Nc2ccccc2)=NN1C(=O)COc1ccccc1Cl in the same way.
44

Consider next the compound COc1ccc(NC2=NN(C(=O)COc3cccc(C)c3)C(C)(C)S2)cc1 in the same way.
58

* * *

# Test system: Sorghum halepense
# test.summary: Herbicidal activity against Sorghum halepense (Johnson grass) assessed as killing at 6 kg/ha by post-emergent activity assay
# Assay type: functional
assay.endpoint: Activity
In your response, the unit should come after the numeric value.

molecule | result
COc1ccc(NC2=NN(C(=O)COc3cccc(C)c3)C(C)(C)S2)cc1 | 100%
Cc1cccc(OCC(=O)N2N=C(Nc3ccccc3)SC2c2ccccc2)c1 (configuration not stated) | 60%
Cc1ccc(NC2=NN(C(=O)COc3cccc(C)c3)C(c3ccccc3)S2)cc1 (configuration not stated) | 50%
COc1ccc(NC2=NN(C(=O)COc3ccccc3Cl)C(C)(C)S2)cc1 | 100%

Form entry - test system: Sorghum halepense; read-out: Activity; molecule: COc1ccc(NC2=NN(C(=O)COc3cccc(C)c3)C(c3ccccc3)S2)cc1 (configuration not stated)
100%

Consider next the molecule Cc1cccc(OCC(=O)N2N=C(Nc3ccc(Cl)cc3)SC2c2ccccc2)c1 (configuration not stated) in the same way.
60%

Consider next the molecule CC1(C)SC(Nc2ccccc2)=NN1C(=O)COc1ccccc1Cl in the same way.
70%
